Numbers sourced from patent US6485743B1.

- METHOD SUMMARY: Comparative test of solubility of the solid dispersions in polymer
- Format: physicochemical
- TEST CONDITIONS: simulated gastric fluid, thermodynamic from solid, simulated gastric juice (pH 1.2), 25° C., itraconazole:hydrophilic polymer=1:1.5 (w/w), n=3, Average ± Standard deviation

| COMPOUND | solubility at 24 h |
| --- | --- |
| CCC(C)n1ncn(-c2ccc(N3CCN(c4ccc(OCC5COC(Cn6cncn6)(c6ccc(Cl)cc6Cl)O5)cc4)CC3)cc2)c1=O (mixture of isomers) | 1.38 µg/mL |
